Molecular target: PGI2 receptor (Homo sapiens, UniProt P43119)
Construct: human blood platelet membrane fraction (0.3 mg protein) was added
Sequence (P43119 whole entry): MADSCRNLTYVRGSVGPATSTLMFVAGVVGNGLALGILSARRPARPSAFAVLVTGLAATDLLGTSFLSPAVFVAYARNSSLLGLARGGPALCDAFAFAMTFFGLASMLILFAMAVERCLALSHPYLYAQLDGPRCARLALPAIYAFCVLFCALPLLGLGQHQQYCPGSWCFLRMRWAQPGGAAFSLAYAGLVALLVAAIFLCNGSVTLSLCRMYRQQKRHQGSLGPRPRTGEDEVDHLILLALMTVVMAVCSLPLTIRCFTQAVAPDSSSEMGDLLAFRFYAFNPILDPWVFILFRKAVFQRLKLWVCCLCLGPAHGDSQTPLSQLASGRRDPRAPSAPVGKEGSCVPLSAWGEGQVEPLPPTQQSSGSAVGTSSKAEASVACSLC
Experiment: Inhibitory activity on binding of ^3 H-iloprost to PGI2 receptor on human blood platelet membrane fraction
Settings: 10 nM [^3H]-iloprost, human blood platelet membrane fraction (0.3 mg protein), 24° C., 30 min, pH 7.4
pIC50: −log10 of the molar value.
pIC50 below 7 gives Not fulfilled; pIC50 at or above it gives Fulfilled.

In [3]: df
Out[3]:
                                   molecule  class_assignment
0  O=C(O)COc1cccc2c1CCC(Cn1cc(C(c3ccccc3)c3ccccc3)cn1)C2 (centres unmarked)         Fulfilled

Determine whether measured pIC50 meets or exceeds 7 for O=C(O)COc1cccc2c1CCC(Cn1cc(C(c3ccccc3)n3ccnc3)cn1)C2 (centres unmarked)
Not fulfilled

Determine whether measured pIC50 meets or exceeds 7 for O=C(O)COc1cccc2c1CCC(Cn1ccc(C(c3ccccc3)c3ccccc3)n1)C2 (centres unmarked)
Not fulfilled

Determine whether measured pIC50 meets or exceeds 7 for O=C(O)COc1cccc2c1CCC(Cn1c(-c3ccccc3)c(-c3ccccc3)n(-c3ccccc3)c1=O)C2 (centres unmarked) [2(e)]
Not fulfilled

Determine whether measured pIC50 meets or exceeds 7 for O=C(O)COc1cccc2c1CCCC2CCn1cc(C(c2ccccc2)c2ccccc2)cn1 (centres unmarked)
Fulfilled

Determine whether measured pIC50 meets or exceeds 7 for O=C(O)COc1cccc2c1CCC(Cc1nc(C(c3ccccc3)c3ccccc3)no1)C2 (centres unmarked)
Not fulfilled

Determine whether measured pIC50 meets or exceeds 7 for O=C(O)COc1cccc2c1CCC(Cc1coc(C(c3ccccc3)c3ccccc3)n1)C2 (centres unmarked)
Not fulfilled

---

Target: PGI2 receptor (Homo sapiens, UniProt P43119)
Construct: human blood platelet membrane fraction (0.3 mg protein) was added
Test: Inhibitory activity on binding of ^3 H-iloprost to PGI2 receptor on human blood platelet membrane fraction
Conditions: 10 nM [^3H]-iloprost, human blood platelet membrane fraction (0.3 mg protein), 24° C., 30 min, pH 7.4
measured_metric: log10 IC50 (log10 of the value in nM)
Kindly note that the scale is log10 and the underlying IC50 is in nM.

Record excerpt, results attached:
                                   compound  measured_number
0  O=C(O)COc1cccc2c1CCC(Cc1c[nH]c(C(c3ccccc3)c3ccccc3)n1)C2 (stereo not drawn) [Example 16]             3.83
1  CCc1oc(C(c2ccccc2)c2ccccc2)nc1CC1CCc2c(cccc2OCC(=O)O)C1 (stereo not drawn) [Example 14]             2.97

# value of log10 IC50, PGI2 receptor (Homo sapiens, UniProt P43119), item O=C(O)COc1cccc2c1CCC(Cn1cnc(C(c3ccccc3)c3ccccc3)c1)C2 (stereo not drawn) [2(g)] = 2.54

# value of log10 IC50, PGI2 receptor (Homo sapiens, UniProt P43119), item O=C(O)COc1cccc2c1CCC(Cn1cc(C(c3ccccc3)c3cccnc3)cn1)C2 (stereo not drawn) [2(i)] = 2.32

# value of log10 IC50, PGI2 receptor (Homo sapiens, UniProt P43119), item O=C(O)COc1cccc2c1CCC(Cn1cc(C(c3ccccc3)c3ccccc3)cn1)=C2 [Example 22] = 1.26

# value of log10 IC50, PGI2 receptor (Homo sapiens, UniProt P43119), item O=C(O)COc1cccc2c1CCC(Cn1cnc(-c3ccccc3)c1-c1ccccc1)C2 (stereo not drawn) [2(a)] = 3.36

# value of log10 IC50, PGI2 receptor (Homo sapiens, UniProt P43119), item O=C(O)COc1cccc2c1CCC(CCSc1nc(-c3ccccc3)c(-c3ccccc3)[nH]1)C2 (stereo not drawn) [4(b)] = 3.70

---

Target: PGI2 receptor (Homo sapiens, UniProt P43119)
Construct: human blood platelet membrane fraction (0.3 mg protein) was added
Assay: Inhibitory activity on binding of ^3 H-iloprost to PGI2 receptor on human blood platelet membrane fraction
Conditions: 10 nM [^3H]-iloprost, human blood platelet membrane fraction (0.3 mg protein), 24° C., 30 min, pH 7.4
measured_metric: pIC50
# reply with the number alone; pIC50 is -log10 of concentration in mol/L

Record excerpt, results attached:
In [3]: df
Out[3]:
                                   molecule                        measurement_target  measured_metric  measured_number
0  O=C(O)COc1cccc2c1CCC(CCOc1nc(-c3ccccc3)c(-c3ccccc3)n1-c1ccccc1)C2 (centres unmarked)  PGI2 receptor (Homo sapiens, UniProt P43119)            pIC50             5.09
1  O=C(O)COc1cccc2c1CCC(COc1nc(-c3ccccc3)c(-c3ccccc3)n1-c1ccccc1)C2 (centres unmarked)  PGI2 receptor (Homo sapiens, UniProt P43119)            pIC50             5.17
2  O=C(O)COc1cccc2c1CCCC2CCn1cnc(-c2ccccc2)c1-c1ccccc1 (centres unmarked)  PGI2 receptor (Homo sapiens, UniProt P43119)            pIC50             5.30
3  O=C(O)COc1cccc2c1CCCC2CCn1c(-c2ccccc2)c(-c2ccccc2)n(-c2ccccc2)c1=O (centres unmarked)  PGI2 receptor (Homo sapiens, UniProt P43119)            pIC50             5.40

# value of pIC50, PGI2 receptor (Homo sapiens, UniProt P43119), item O=C(O)COc1cccc2c1CCCC2CCc1nc(C(c2ccccc2)c2ccccc2)no1 (centres unmarked) = 5.70

# value of pIC50, PGI2 receptor (Homo sapiens, UniProt P43119), item O=C(O)COc1cccc2c1CCC(Cc1nc(C(c3ccccc3)c3ccccc3)co1)C2 (centres unmarked) = 5.74

# value of pIC50, PGI2 receptor (Homo sapiens, UniProt P43119), item O=C(O)COc1cccc2c1CCC(CCn1cc(C(c3ccccc3)c3ccccc3)cn1)C2 (centres unmarked) = 5.85

# value of pIC50, PGI2 receptor (Homo sapiens, UniProt P43119), item O=C(O)COc1cccc2c1CCC(CSc1nc(-c3ccccc3)c(-c3ccccc3)[nH]1)C2 (centres unmarked) = 5.41

# credit: patent US5589496A
